Listing of recorded Proportion of chimeric antibody positive cells to B cells (%) by entry.
# measurementTarget: T1, CD22 on cynomolgus monkey peripheral blood B cells (cynomolgus monkey (Macaca fascicularis))
# T1 construct: whole, on cells; also called cynomolgus monkey B cells
# assayInfo: FACS, cynomolgus PBMC, CD20+ B cells, antibody 1 nM
Reply numerically in %, unit not repeated.

Here's what some known entries look like.
F1.17.1 (antibody, human IgG1, kappa, V domains shown, human-murine chimeric IgG1 kappa) VH: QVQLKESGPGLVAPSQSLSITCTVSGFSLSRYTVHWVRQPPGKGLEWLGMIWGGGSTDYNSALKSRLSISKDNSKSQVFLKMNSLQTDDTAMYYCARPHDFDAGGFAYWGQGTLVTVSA VL: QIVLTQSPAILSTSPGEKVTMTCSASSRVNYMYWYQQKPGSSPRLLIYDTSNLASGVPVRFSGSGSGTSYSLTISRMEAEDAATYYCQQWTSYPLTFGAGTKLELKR | 60
F1.60.9 (antibody, human IgG1, kappa, V domains shown, human-murine chimeric IgG1 kappa) VH: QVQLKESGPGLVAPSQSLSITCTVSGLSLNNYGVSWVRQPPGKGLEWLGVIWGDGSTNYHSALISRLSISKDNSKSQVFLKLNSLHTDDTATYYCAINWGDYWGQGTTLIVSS VL: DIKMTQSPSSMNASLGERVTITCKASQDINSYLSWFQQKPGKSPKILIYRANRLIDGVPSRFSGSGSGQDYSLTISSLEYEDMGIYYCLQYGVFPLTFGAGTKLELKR | 16
F1.280.1 (antibody, human IgG1, kappa, V domains shown, human-murine chimeric IgG1 kappa) VH: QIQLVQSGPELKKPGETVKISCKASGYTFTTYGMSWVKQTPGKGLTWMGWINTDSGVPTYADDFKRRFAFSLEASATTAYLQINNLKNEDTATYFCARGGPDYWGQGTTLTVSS VL: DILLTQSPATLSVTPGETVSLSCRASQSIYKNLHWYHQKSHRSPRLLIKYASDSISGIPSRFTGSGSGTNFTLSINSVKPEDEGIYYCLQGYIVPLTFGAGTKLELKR | 19
F1.216.2 (antibody, human IgG1, kappa, V domains shown, human-murine chimeric IgG1 kappa) VH: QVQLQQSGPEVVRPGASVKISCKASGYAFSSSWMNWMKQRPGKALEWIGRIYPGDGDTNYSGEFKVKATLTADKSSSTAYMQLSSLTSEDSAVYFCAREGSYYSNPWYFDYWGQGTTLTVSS VL: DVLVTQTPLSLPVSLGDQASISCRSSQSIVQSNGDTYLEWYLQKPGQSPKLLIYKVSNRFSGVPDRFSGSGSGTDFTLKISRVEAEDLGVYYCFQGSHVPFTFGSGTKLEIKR | 22

// switching to the query binder
State its Proportion of chimeric antibody positive cells to B cells (%) for this binder: F2.205.9 (antibody, human IgG1, lambda, V domains shown, human-murine chimeric IgG1 lambda; VL name legible) VH: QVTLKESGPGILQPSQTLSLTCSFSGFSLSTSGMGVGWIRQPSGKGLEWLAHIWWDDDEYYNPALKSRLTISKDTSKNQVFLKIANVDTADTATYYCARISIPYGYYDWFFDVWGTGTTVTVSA VL: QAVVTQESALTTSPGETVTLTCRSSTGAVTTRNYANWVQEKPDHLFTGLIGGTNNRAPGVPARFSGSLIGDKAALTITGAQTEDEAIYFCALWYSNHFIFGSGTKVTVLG
40
